test details: Paromomycin in vivo absorption (pharmacokinetic) studies in rats
Parameters: species or system Male rats (Sprague Dawley)
details: male, Sprague Dawley, rat, plasma, iv, 100 mg/kg, i.v. 100 mg/kg, Group #1, individual rats, read-out: AUC
Where a name gives a salt, the structure may show the parent alone.
readout label: AUC (ng·h/mL)
Kindly answer with a numeric value in ng·h/mL, unit omitted.

The reported AUC of the compound NC[C@@H]1O[C@H](O[C@H]2[C@@H](O)[C@H](O[C@@H]3[C@@H](O)[C@H](N)C[C@H](N)[C@H]3O[C@H]3O[C@H](CO)[C@@H](O)[C@H](O)[C@H]3N)O[C@@H]2CO)[C@H](N)[C@@H](O)[C@@H]1O [PAR, Paromomycin sulfate] was 93500

* * *

test details: In vitro PAR transport across harvested intestinal segments, EasyMount Ussing System: duodenum
Assay type: in vitro ADME
details: rat, 5 mg/ml (~25 mg) paromomycin in mucosal chamber, tissue area 0.5 sq cm
Counter-ions that a name gives are not always drawn.
readout label: Papp at […], 5 mg/ml
Answer format: value, then unit.

Value of Papp at […], 5 mg/ml reported for the compound NC[C@@H]1O[C@H](O[C@H]2[C@@H](O)[C@H](O[C@@H]3[C@@H](O)[C@H](N)C[C@H](N)[C@H]3O[C@H]3O[C@H](CO)[C@@H](O)[C@H](O)[C@H]3N)O[C@@H]2CO)[C@H](N)[C@@H](O)[C@@H]1O [PAR, Paromomycin sulfate] is 1.94 ×10⁻⁶ cm/s

* * *

test details: In vitro PAR transport across harvested intestinal segments, EasyMount Ussing System: jejunum
Format: in vitro ADME
details: rat, jejunum M-to-S; 15 mg/ml PAR; Sodium Decanoate in serosal 0.5 mg/ml (not equilibrated)
Counter-ions that a name gives are not always drawn.
readout label: Papp at 15 mg/ml (×10⁻⁶ cm/s)
Kindly answer with a numeric value in ×10⁻⁶ cm/s, unit omitted.

Lab book: Papp at 15 mg/ml of NC[C@@H]1O[C@H](O[C@H]2[C@@H](O)[C@H](O[C@@H]3[C@@H](O)[C@H](N)C[C@H](N)[C@H]3O[C@H]3O[C@H](CO)[C@@H](O)[C@H](O)[C@H]3N)O[C@@H]2CO)[C@H](N)[C@@H](O)[C@@H]1O [PAR, Paromomycin sulfate] noted as 3.54

* * *

test details: In vitro PAR transport across harvested intestinal segments, EasyMount Ussing System: jejunum
Assay type: in vitro ADME
details: rat, jejunum; 5 mg/ml (~25 mg) paromomycin in mucosal chamber; tissue area 0.5 sq cm
Counter-ions that a name gives are not always drawn.
readout label: Papp at […], 5 mg/ml (nm/s)
The reply should be a number in nm/s, with the unit left off.

GET /value?item= NC[C@@H]1O[C@H](O[C@H]2[C@@H](O)[C@H](O[C@@H]3[C@@H](O)[C@H](N)C[C@H](N)[C@H]3O[C@H]3O[C@H](CO)[C@@H](O)[C@H](O)[C@H]3N)O[C@@H]2CO)[C@H](N)[C@@H](O)[C@@H]1O [PAR, Paromomycin sulfate] &field=Papp at […], 5 mg/ml returns 39.3

* * *

test details: Paromomycin in vivo absorption (pharmacokinetic) studies in rats
Design: species or system Male rats (Sprague Dawley)
details: male, Sprague Dawley, rat, plasma, iv, 100 mg/kg, i.v. 100 mg/kg, Group #1, individual rats
Structures can show the parent of a compound that is named as a salt.
readout label: clearance (mL/min/kg)
Lab book: enter the figure in mL/min/kg, no units written.

The reported clearance of the molecule NC[C@@H]1O[C@H](O[C@H]2[C@@H](O)[C@H](O[C@@H]3[C@@H](O)[C@H](N)C[C@H](N)[C@H]3O[C@H]3O[C@H](CO)[C@@H](O)[C@H](O)[C@H]3N)O[C@@H]2CO)[C@H](N)[C@@H](O)[C@@H]1O [PAR, Paromomycin sulfate] was 17.8

* * *

test details: Paromomycin in vivo absorption (pharmacokinetic) studies in rats
Set-up: species or system Male rats (Sprague Dawley)
details: male, Sprague Dawley, rat, plasma, iv, 100 mg/kg, i.v. 100 mg/kg in sterile saline, Group #1, individual rats
Structures can show the parent of a compound that is named as a salt.
readout label: half-life (h)
Just the number in h, nothing appended.

The reported half-life of the compound NC[C@@H]1O[C@H](O[C@H]2[C@@H](O)[C@H](O[C@@H]3[C@@H](O)[C@H](N)C[C@H](N)[C@H]3O[C@H]3O[C@H](CO)[C@@H](O)[C@H](O)[C@H]3N)O[C@@H]2CO)[C@H](N)[C@@H](O)[C@@H]1O [PAR, Paromomycin sulfate] was 2.85

* * *

test details: In vitro PAR transport across harvested intestinal segments, EasyMount Ussing System: jejunum
Assay type: in vitro ADME
details: rat, jejunum M-to-S; 15 mg/ml PAR; Sodium Decanoate in serosal 0.2 mg/ml (not equilibrated)
Where a name gives a salt, the structure may show the parent alone.
readout label: Papp at 15 mg/ml (×10⁻⁶ cm/s)
Answer format: numeric, ×10⁻⁶ cm/s implied, no suffix.

What the record says about NC[C@@H]1O[C@H](O[C@H]2[C@@H](O)[C@H](O[C@@H]3[C@@H](O)[C@H](N)C[C@H](N)[C@H]3O[C@H]3O[C@H](CO)[C@@H](O)[C@H](O)[C@H]3N)O[C@@H]2CO)[C@H](N)[C@@H](O)[C@@H]1O [PAR, Paromomycin sulfate] : Papp at 15 mg/ml is 3.86

* * *

test details: Paromomycin in vivo absorption (pharmacokinetic) studies in rats
Set-up: species or system Male rats (Sprague Dawley)
details: male, Sprague Dawley, rat, plasma, iv, 100 mg/kg, i.v. 100 mg/kg, Group #1, Mean of 3 rats, read-out: Cmax
Where a name gives a salt, the structure may show the parent alone.
readout label: Cmax (µg/mL)
Please state the figure in µg/mL; there is no need to write the unit.

# compound NC[C@@H]1O[C@H](O[C@H]2[C@@H](O)[C@H](O[C@@H]3[C@@H](O)[C@H](N)C[C@H](N)[C@H]3O[C@H]3O[C@H](CO)[C@@H](O)[C@H](O)[C@H]3N)O[C@@H]2CO)[C@H](N)[C@@H](O)[C@@H]1O [PAR, Paromomycin sulfate] ; its Cmax = 124

* * *

test details: Paromomycin in vivo absorption (pharmacokinetic) studies in rats
Design: species or system Male rats (Sprague Dawley)
details: male, Sprague Dawley, rat, plasma, iv, 100 mg/kg, i.v. 100 mg/kg, Group #1, Mean of 3 rats
Protocol: Paromomycin was extracted from plasma samples (100 μl volume) with phenylboronic acid solid phase extraction columns, and the bound drug was eluted from the columns with 1% (v/v) formic acid in water. The acid eluates were evaporated under vacuum, and then the dry residues were reconstituted in 100 μl of 1 mM heptafluorobutyric acid (HFBA) in water.
Counter-ions that a name gives are not always drawn.
readout label: clearance
Note to self: number, then unit, no commentary.

Lab note: measured clearance of NC[C@@H]1O[C@H](O[C@H]2[C@@H](O)[C@H](O[C@@H]3[C@@H](O)[C@H](N)C[C@H](N)[C@H]3O[C@H]3O[C@H](CO)[C@@H](O)[C@H](O)[C@H]3N)O[C@@H]2CO)[C@H](N)[C@@H](O)[C@@H]1O [PAR, Paromomycin sulfate] was 22.3 mL/min/kg

* * *

test details: Paromomycin in vivo absorption (pharmacokinetic) studies in rats
Parameters: species or system Male rats (Sprague Dawley)
details: male, Sprague Dawley, rat, plasma, iv, 100 mg/kg, i.v. 100 mg/kg, Group #1, individual rats, read-out: Cmax
Description: Paromomycin was extracted from plasma samples (100 μl volume) with phenylboronic acid solid phase extraction columns, and the bound drug was eluted from the columns with 1% (v/v) formic acid in water. The acid eluates were evaporated under vacuum, and then the dry residues were reconstituted in 100 μl of 1 mM heptafluorobutyric acid (HFBA) in water.
Where a name gives a salt, the structure may show the parent alone.
readout label: Cmax (µg/mL)
Hi! Could you send only the number? It should be in µg/mL, unit omitted.

Given item NC[C@@H]1O[C@H](O[C@H]2[C@@H](O)[C@H](O[C@@H]3[C@@H](O)[C@H](N)C[C@H](N)[C@H]3O[C@H]3O[C@H](CO)[C@@H](O)[C@H](O)[C@H]3N)O[C@@H]2CO)[C@H](N)[C@@H](O)[C@@H]1O [PAR, Paromomycin sulfate] , the value recorded as its Cmax is 174

* * *

test details: In vitro PAR transport across harvested intestinal segments, EasyMount Ussing System: jejunum
Assay type: in vitro ADME
details: rat, jejunum M-to-S; 15 mg/ml PAR; no Quinidine, no Sodium Decanoate; tissue area 0.5 sq cm
Where a name gives a salt, the structure may show the parent alone.
readout label: Papp at 15 mg/ml (×10⁻⁶ cm/s)
Please give a number only; it is taken to be in ×10⁻⁶ cm/s.

For NC[C@@H]1O[C@H](O[C@H]2[C@@H](O)[C@H](O[C@@H]3[C@@H](O)[C@H](N)C[C@H](N)[C@H]3O[C@H]3O[C@H](CO)[C@@H](O)[C@H](O)[C@H]3N)O[C@@H]2CO)[C@H](N)[C@@H](O)[C@@H]1O [PAR, Paromomycin sulfate] the compound record lists Papp at 15 mg/ml as 2.63

Hey, just so you know, these numbers are from patent US20080207745A1.
